- ASSAY_SYSTEM: GDP-bound KRAS wild-type protein (Homo sapiens, UniProt P01116)
- Sequence (P01116 whole entry): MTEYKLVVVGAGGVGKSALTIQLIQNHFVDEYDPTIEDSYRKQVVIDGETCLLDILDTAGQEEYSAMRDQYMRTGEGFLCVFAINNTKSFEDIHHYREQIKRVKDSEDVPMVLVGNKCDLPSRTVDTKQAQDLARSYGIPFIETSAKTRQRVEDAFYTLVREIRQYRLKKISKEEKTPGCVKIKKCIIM
- ASSAY_OVERVIEW: Binding to KRAS by surface plasmon resonance (SPR), Single Cycle Kinetics
- MEASUREMENT_SETUP: SPR, Single Cycle Kinetics, GDP-bound KRAS wild-type protein; read-out: KRAS KD
Kindly supply the reported Kd values for the records listed here.
Note: unit nM is implicit; provide only the numeric part.

May I ask what Kd has been recorded for C#CC[C@H]1C(=O)N[C@@H]([C@@H](C)CC)C(=O)N(C)CC(=O)N(C)[C@H]2C/C=C\CCN(C2=O)[C@@H](Cc2ccc(C)cc2)C(=O)N(C)CC(=O)N[C@@H](CCc2ccc(C(F)(F)F)c(Cl)c2)C(=O)N2CC3(CC3)C[C@H]2C(=O)NC2(CC(C)(C)C2)C(=O)N(C)[C@@H](C2CCCC2)C(=O)N(C)[C@H](C(=O)N(C)C)CC(=O)N1C [PP2982] ? 0.16

Please do the same for CC[C@H](C)[C@@H]1NC(=O)[C@H](COC)N(C)C(=O)C[C@@H](C(=O)N2CCOCC2)N(C)C(=O)[C@H](C2CCCC2)N(C)C(=O)C2(CCCC2)NC(=O)[C@@H]2CCCN2C(=O)[C@H](CCc2ccc(C(F)(F)F)c(Cl)c2)NC(=O)CN(C)C(=O)[C@H](Cc2ccc(F)cc2)N2CCCCC[C@@H](C2=O)N(C)C(=O)CN(C)C1=O [PP0960] as well. 0.37

Query CCCOC[C@H]1C(=O)N[C@@H]([C@@H](C)CC)C(=O)N(C)CC(=O)N(C)[C@H]2C/C=C\CCN(C2=O)[C@@H](Cc2ccc(C)cc2)C(=O)N(C)CC(=O)N[C@@H](CCc2ccc(C(F)(F)F)c(OC)c2)C(=O)N2C[C@@H](C)C[C@H]2C(=O)N(C)C2(CCC2)C(=O)N(C)[C@@H](C2CCCC2)C(=O)N(C)[C@H](C(=O)N(C)C)CC(=O)N1C [PP2365] next 0.02

Same again, this time with CCO[C@@H]1C[C@H]2C(=O)NC3(CC(C)(C)C3)C(=O)N(C)[C@@H](C3CCCC3)C(=O)N(C)[C@H](C(=O)N(C)C)CC(=O)N(C)[C@@H](CC)C(=O)N[C@@H]([C@@H](C)CC)C(=O)N(C)CC(=O)N(C)[C@H]3C/C=C\CCN(C3=O)[C@@H](Cc3ccc(C)cc3)C(=O)N(C)CC(=O)N[C@@H](CCc3ccc(C(F)(F)F)c(Cl)c3)C(=O)N2C1 [PP1878] 0.063

Moving on to the next molecule: CCCN(C)C(=O)[C@@H]1CC(=O)N(C)[C@@H](COC)C(=O)N[C@@H]([C@@H](C)CC)C(=O)N(C)CC(=O)N(C)[C@H]2C/C=C\CCN(C2=O)[C@@H](Cc2ccc(C(F)(F)F)cc2)C(=O)N(C)CC(=O)N[C@@H](CCc2cc(F)c(C(F)(F)F)c(F)c2)C(=O)N2C[C@H](OCC)C[C@H]2C(=O)NC2(CC(F)(F)C2)C(=O)N(C)[C@@H](C2CCCC2)C(=O)N1C [PP1743] 0.076

What about this molecule? CCC[C@H]1C(=O)N[C@@H]([C@@H](C)CC)C(=O)N(C)CC(=O)N(C)[C@H]2C/C=C\CCN(C2=O)[C@@H](Cc2ccc(C(F)(F)F)cc2)C(=O)N(C)CC(=O)N[C@@H](CCc2ccc(C(F)(F)F)c(Cl)c2)C(=O)N2C[C@H](OCC)C[C@H]2C(=O)NC2(CC(C)(C)C2)C(=O)N(C)[C@@H](C2CCCC2)C(=O)N(C)[C@H](C(=O)N(C)C)CC(=O)N1C [PP1748] 0.062

----------
- ASSAY_SYSTEM: GDP-bound KRAS wild-type protein (Homo sapiens)
- ASSAY_OVERVIEW: Binding to KRAS by surface plasmon resonance (SPR), Single Cycle Kinetics
- MEASUREMENT_SETUP: SPR, Single Cycle Kinetics, GDP-bound KRAS wild-type protein; read-out: KRAS KD
Can you tell me pKd for the items I'm about to list?
Lab note: report pKd as minus log10 of the concentration in molar units, number only.

Please state recorded pKd (tested on GDP-bound KRAS wild-type protein (Homo sapiens)) of CCO[C@H](C)[C@@H]1NC(=O)[C@H](CC(C)C)N(C)C(=O)C[C@@H](C(=O)N(C)CC)N(C)C(=O)[C@H](C2CCCC2)N(C)C(=O)C2(CC(C)(C)C2)NC(=O)[C@@H]2C[C@H](C)CN2C(=O)[C@H](CCc2cc(F)c(C(F)(F)F)c(F)c2)NC(=O)CN(C)C(=O)[C@H](Cc2ccc(C)cc2)N2CC/C=C\C[C@@H](C2=O)N(C)C(=O)CN(C)C1=O 9.48

Moving on to the next compound: CCC[C@H]1C(=O)N[C@@H](C2CCCC2)C(=O)N(C)CC(=O)N(C)[C@H]2C/C=C\CCN(C2=O)[C@@H](Cc2ccc(C(F)(F)F)cc2)C(=O)N(C)CC(=O)N[C@@H](CCc2ccc(C(F)(F)F)c(Cl)c2)C(=O)N2C[C@H](OCC)C[C@H]2C(=O)NC2(CC(C)(C)C2)C(=O)N(C)[C@@H](CC(C)(C)C)C(=O)N(C)[C@H](C(=O)N(C)C)CC(=O)N1C 9.72

Also CCC[C@H]1C(=O)N[C@@H]([C@@H](C)CC)C(=O)N(C)CC(=O)N(C)[C@H]2C/C=C\CCN(C2=O)[C@@H](Cc2ccc(C)cc2)C(=O)N(C)CC(=O)N[C@@H](CCc2ccc(C(F)(F)F)c(Cl)c2)C(=O)N2C[C@H](OCC)C[C@H]2C(=O)NC2(CC(C)(C)C2)C(=O)N(C)[C@@H](C(CC)CC)C(=O)N(C)[C@H](C(=O)N(C)C)CC(=O)N1C ? 9.48

Repeat for the following compound: CCO[C@@H]1C[C@H]2C(=O)NC3(CCC3)C(=O)N(C)[C@@H](C3CCCC3)C(=O)N(C)[C@H](C(=O)N(C)C)CC(=O)N(C)[C@@H](CC)C(=O)N[C@@H]([C@@H](C)CC)C(=O)N(C)CC(=O)N(C)[C@H]3CCCCCN(C3=O)[C@@H](Cc3ccc(F)c(Cl)c3)C(=O)N(C)CC(=O)N[C@@H](CCc3cc(F)c(C(F)(F)F)c(F)c3)C(=O)N2C1 9.32

What would you report for CCO[C@@H]1C[C@H]2C(=O)NC3(CCC3)C(=O)N(C)[C@@H](C3CCCC3)C(=O)N(C)[C@H](C(=O)N3CCOCC3)CC(=O)N(C)[C@@H](Cc3ccccc3F)C(=O)N[C@@H]([C@@H](C)CC)C(=O)N(C)CC(=O)N(C)[C@H]3CCCCCN(C3=O)[C@@H](Cc3ccc(C(F)(F)F)cc3)C(=O)N(C)CC(=O)N[C@@H](CCc3cc(F)c(C(F)(F)F)c(F)c3)C(=O)N2C1 ? 8.62

And for CCCOC[C@H]1C(=O)N[C@@H]([C@@H](C)CC)C(=O)N(C)CC(=O)N(C)[C@H]2C/C=C\CCN(C2=O)[C@@H](Cc2ccc(C(F)(F)F)cc2)C(=O)N(C)CC(=O)N[C@@H](CCc2cc(F)c(C(F)(F)F)c(F)c2)C(=O)N2C[C@H](F)C[C@H]2C(=O)NC2(CC(C)(C)C2)C(=O)N(C)[C@@H](C2CCCC2)C(=O)N(C)[C@H](C(=O)N(C)CCC)CC(=O)N1C ? 10.12

What do we get for CC[C@H](C)[C@@H]1NC(=O)[C@H](CC(C)C)N(C)C(=O)C[C@@H](C(=O)N(C)C)N(C)C(=O)[C@H](C2CCCC2)N(C)C(=O)C2(CC(C)(C)C2)NC(=O)[C@@H]2CCCN2C(=O)[C@H](CCc2cc(F)c(C(F)(F)F)c(F)c2)NC(=O)CN(C)C(=O)[C@H](Cc2ccc(C(F)(F)F)cc2)N2CC/C=C\C[C@@H](C2=O)N(C)C(=O)CN(C)C1=O ? 9.89

Would you mind doing CC[C@H](C)[C@@H]1NC(=O)[C@H](C2CCC2)N(C)C(=O)C[C@@H](C(=O)N(C)CC)N(C)C(=O)[C@H](C2CCCC2)N(C)C(=O)C2(CCC2)NC(=O)[C@@H]2C[C@H](C)CN2C(=O)[C@H](CCc2ccc(C(F)(F)F)c(OC)c2)NC(=O)CN(C)C(=O)[C@H](Cc2ccc(C(F)(F)F)cc2)N2CC/C=C\C[C@@H](C2=O)N(C)C(=O)CN(C)C1=O as well? 10.00

CCC(CC)[C@H]1C(=O)N(C)[C@H](C(=O)N(C)C)CC(=O)N(C)[C@@H](CC2CC2)C(=O)N[C@@H]([C@@H](C)CC)C(=O)N(C)CC(=O)N(C)[C@H]2C/C=C\CCN(C2=O)[C@@H](CC2CCC(F)(F)CC2)C(=O)N(C)CC(=O)N[C@@H](CCc2ccc(C(F)(F)F)c(OC)c2)C(=O)N2C[C@@H](C)C[C@H]2C(=O)NC2(CC(C)(C)C2)C(=O)N1C ? 8.74

Same lookup for CCO[C@@H]1C[C@H]2C(=O)NC3(CC(C)(C)C3)C(=O)N(C)[C@@H](C(CC)CC)C(=O)N(C)[C@H](C(=O)N(C)C)CC(=O)N(C)[C@@H](CC3CC3)C(=O)N[C@@H]([C@@H](C)CC)C(=O)N(C)CC(=O)N(C)[C@H]3C/C=C\CCN(C3=O)[C@@H](CC3CCC(F)(F)CC3)C(=O)N(C)CC(=O)N[C@@H](CCc3cc(F)c(C(F)(F)F)c(F)c3)C(=O)N2C1 , please. 9.11

What about CC[C@H](C)[C@@H]1NC(=O)[C@H](C(C)C)N(C)C(=O)C[C@@H](C(=O)N(C)CC)N(C)C(=O)[C@H](C2CCCC2)N(C)C(=O)C2(CCC2)NC(=O)[C@@H]2C[C@H](C)CN2C(=O)[C@H](CCc2cc(F)c(C(F)(F)F)c(F)c2)NC(=O)CN(C)C(=O)[C@H](Cc2ccc(C(F)(F)F)cc2)N2CC/C=C\C[C@@H](C2=O)N(C)C(=O)CN(C)C1=O ? 9.77

The reported measurements were obtained from patent US20240158446A1.
